test: Pharmacokinetics of HC-7366 in male and female beagle dogs following IV and oral administration of HC-7366-K (plasma and urine, LC-MS/MS); assay type: in vivo, Beagle Dog; conditions: dog, plasma; male beagle dogs, intravenous 0.5 mg/kg; read-out: volume of distribution at steady state (Vss)
PARAMETER_MEASURED: Vd (L/kg)
Output spec: scalar in L/kg, unitless text.

Summary for this molecule, CNC(=O)c1ncn2cc(-c3c(F)ccc(NS(=O)(=O)c4cc(Cl)cnc4OC)c3F)ncc12 : Vd is 0.107

---

test: Multicenter, open-label, Phase 1a/b study of HC-7366 in subjects with advanced solid tumors (safety, PK); type: in vivo; details: human, plasma, po, 10 mg, human, single oral dose 10 mg (N = 3), Cycle 1 Day 1, geometric mean; read-out: AUC0-last
Text: […]
PARAMETER_MEASURED: AUC(0-t) (ng·h/mL)
Output spec: scalar in ng·h/mL, unitless text.

Summary for this molecule, CNC(=O)c1ncn2cc(-c3c(F)ccc(NS(=O)(=O)c4cc(Cl)cnc4OC)c3F)ncc12 [HC-7366] : AUC(0-t) is 15100

Data provenance is patent US20260224563A1.
